# Tested on: ICR (CD-1) mice
# Assay: In vivo toxicity in mice (SC, IN, IP routes)
# Design: unit not given here
# Conditions used: serum; IN, 3 doses (1hr, 12hr, 24hr); head doses: RN7-IN10, RN7-IN8 20 mg/kg; RN7-IN9, RN7-IN6 10 mg/kg; day 7; mean±SD, 4 mice
# Lookup of reported Alkaline phosphatase, ALP keyed by entry
Reported metric: Alkaline phosphatase, ALP

> print(dat)
                                  substance  experimental.system  readout.value
1  FLGGLIKWPWWPWRR-NH2 [RN7-IN8, hybrid peptide of ranalexin (residues 1-7) and indolicidin (residues 6-13)]      ICR (CD-1) mice     128.5±21.7
2  FLGGLIKWWPWRR-NH2 [RN7-IN6, hybrid peptide of ranalexin (residues 1-7) and indolicidin (residues 8-13)]      ICR (CD-1) mice     138.33±5.5
3  FLGGLIKKWPWWPWRR-NH2 [RN7-IN9, hybrid peptide of ranalexin (residues 1-7) and indolicidin (residues 5-13)]      ICR (CD-1) mice    127.75±6.07
4  FLGGLIKWKWPWWPWRR-NH2 [RN7-IN10, hybrid peptide of ranalexin (residues 1-7) and indolicidin (residues 4-13)]      ICR (CD-1) mice     133.3±10.1
